Entries and their remaining activity at 100 µM
Molecular target: SmMLCK (Homo sapiens, UniProt Q15746)
Sequence (Q15746 923-1914): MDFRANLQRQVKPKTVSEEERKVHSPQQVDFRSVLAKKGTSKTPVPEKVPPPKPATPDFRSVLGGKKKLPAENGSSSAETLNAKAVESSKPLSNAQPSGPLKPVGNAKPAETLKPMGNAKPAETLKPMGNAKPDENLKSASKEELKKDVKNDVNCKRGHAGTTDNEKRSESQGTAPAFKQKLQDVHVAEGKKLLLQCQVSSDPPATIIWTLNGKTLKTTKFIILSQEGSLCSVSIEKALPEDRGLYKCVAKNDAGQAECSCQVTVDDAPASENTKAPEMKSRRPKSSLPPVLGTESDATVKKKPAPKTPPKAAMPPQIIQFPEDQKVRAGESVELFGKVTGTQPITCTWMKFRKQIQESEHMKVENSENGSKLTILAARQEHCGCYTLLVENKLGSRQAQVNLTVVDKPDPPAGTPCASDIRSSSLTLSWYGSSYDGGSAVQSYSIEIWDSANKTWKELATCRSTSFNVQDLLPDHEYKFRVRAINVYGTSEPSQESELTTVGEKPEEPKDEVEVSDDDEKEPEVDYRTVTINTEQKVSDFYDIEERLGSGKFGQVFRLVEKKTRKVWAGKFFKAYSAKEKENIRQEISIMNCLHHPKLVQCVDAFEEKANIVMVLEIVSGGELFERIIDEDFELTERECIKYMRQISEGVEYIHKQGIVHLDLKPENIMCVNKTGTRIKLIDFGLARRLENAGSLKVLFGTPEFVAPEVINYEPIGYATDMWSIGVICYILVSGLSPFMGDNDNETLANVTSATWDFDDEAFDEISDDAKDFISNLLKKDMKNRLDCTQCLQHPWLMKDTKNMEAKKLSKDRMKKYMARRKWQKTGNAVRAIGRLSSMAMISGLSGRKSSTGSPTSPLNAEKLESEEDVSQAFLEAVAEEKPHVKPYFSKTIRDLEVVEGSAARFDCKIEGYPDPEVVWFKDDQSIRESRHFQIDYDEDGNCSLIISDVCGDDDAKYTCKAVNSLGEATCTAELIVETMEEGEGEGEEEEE
Assay: Kinase profiling SmMLCK
Assay type: biochemical
Settings: 100 micromolar inhibitor concentration; 100 is no change; read-out: residual kinase activity, SmMLCK
Measured Endpoint: remaining activity at 100 µM (%)

compound_structure=COc1ccc2sc(NC(C)=O)nc2c1 value_unit=% endpoint_value=50
compound_structure=CC(=O)Nc1nc2ccc([N+](=O)[O-])cc2s1 value_unit=% endpoint_value=58
compound_structure=CC(=O)Nc1nc2cc(F)ccc2s1 value_unit=% endpoint_value=66
compound_structure=CC(=O)Nc1nc2ccc(C#N)cc2s1 value_unit=% endpoint_value=54
compound_structure=CC(=O)Nc1nc2ccc(O)cc2s1 value_unit=% endpoint_value=39
compound_structure=CC(=O)Nc1nc2ccc(C(F)(F)F)cc2s1 value_unit=% endpoint_value=80
compound_structure=COC(=O)c1cccc(C(=O)Nc2nc3ccc(C(F)(F)F)cc3s2)c1 value_unit=% endpoint_value=63
compound_structure=CC(=O)Nc1nc2cc(C(F)(F)F)ccc2s1 value_unit=% endpoint_value=71
compound_structure=CC(=O)Nc1nc2cc(O)ccc2s1 value_unit=% endpoint_value=58

---

Test system: AMPK (hum)
Test: Kinase profiling AMPK (hum)
Assay type: biochemical, human
Details: 100 micromolar inhibitor concentration; 100 is no change
Measured Endpoint: residual kinase activity, AMPK (hum)

compound="O=C(Nc1nc2cc(O)ccc2s1)c1cccnc1 [Compound 03-33]" measured_endpoint="residual kinase activity, AMPK (hum)" endpoint_value=87
compound="O=C(Nc1nc2ccc(F)cc2s1)c1ccccc1 [Compound 03-92]" measured_endpoint="residual kinase activity, AMPK (hum)" endpoint_value=76
compound="CC(=O)Nc1nc2ccc([N+](=O)[O-])cc2s1 [Compound 13-10]" measured_endpoint="residual kinase activity, AMPK (hum)" endpoint_value=70
compound="COc1ccc2sc(NC(C)=O)nc2c1 [Compound 03-21]" measured_endpoint="residual kinase activity, AMPK (hum)" endpoint_value=81
compound="O=C(Nc1nc2ccc(O)cc2s1)c1cccnc1 [Compound 08-44]" measured_endpoint="residual kinase activity, AMPK (hum)" endpoint_value=55
compound="CC(=O)Nc1nc2ccc(F)cc2s1 [Compound 03-94]" measured_endpoint="residual kinase activity, AMPK (hum)" endpoint_value=59
compound="O=C(Nc1nc2ccc(O)cc2s1)c1ccncc1 [Compound 08-42]" measured_endpoint="residual kinase activity, AMPK (hum)" endpoint_value=65
compound="N#Cc1ccc2nc(NC(=O)c3ccccc3)sc2c1 [Compound 03-106]" measured_endpoint="residual kinase activity, AMPK (hum)" endpoint_value=80
compound="CC(=O)Nc1nc2ccccc2s1 [Compound 03-32]" measured_endpoint="residual kinase activity, AMPK (hum)" endpoint_value=86
compound="O=C(Nc1nc2ccc(O)cc2s1)c1ccccn1 [Compound 03-12]" measured_endpoint="residual kinase activity, AMPK (hum)" endpoint_value=90
compound="CC(=O)Nc1nc2cc(C(F)(F)F)ccc2s1 [Compound 03-73]" measured_endpoint="residual kinase activity, AMPK (hum)" endpoint_value=62

---

Molecular target: OSR1 (Homo sapiens)
Sequence (O95747 whole entry): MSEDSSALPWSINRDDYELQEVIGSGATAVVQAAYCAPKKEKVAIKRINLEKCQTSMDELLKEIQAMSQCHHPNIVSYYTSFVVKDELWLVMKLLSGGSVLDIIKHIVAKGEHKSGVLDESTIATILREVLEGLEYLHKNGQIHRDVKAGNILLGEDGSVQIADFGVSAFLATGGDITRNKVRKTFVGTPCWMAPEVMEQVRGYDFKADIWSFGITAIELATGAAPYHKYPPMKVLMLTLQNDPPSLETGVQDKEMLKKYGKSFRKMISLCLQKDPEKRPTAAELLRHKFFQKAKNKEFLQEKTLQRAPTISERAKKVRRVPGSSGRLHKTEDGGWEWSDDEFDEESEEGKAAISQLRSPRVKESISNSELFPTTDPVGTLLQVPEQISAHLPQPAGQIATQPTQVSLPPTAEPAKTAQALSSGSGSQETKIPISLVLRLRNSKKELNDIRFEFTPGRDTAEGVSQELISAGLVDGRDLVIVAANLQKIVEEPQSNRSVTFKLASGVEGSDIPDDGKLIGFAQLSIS
Assay: Kinase profiling OSR1
Assay type: biochemical
Settings: 100 micromolar inhibitor concentration; 100 is no change
Measured Endpoint: residual kinase activity, OSR1

compound_structure=O=C(Nc1nc2cc(O)ccc2s1)c1ccccn1 endpoint_value=97
compound_structure=O=C(Nc1nc2cc(O)ccc2s1)c1ccncc1 endpoint_value=90
compound_structure=O=C(Nc1nc2ccc(O)cc2s1)c1ccccc1 endpoint_value=82
compound_structure=O=C(Nc1nc2cc(O)ccc2s1)c1cccnc1 endpoint_value=109
compound_structure=O=C(Nc1nc2ccc(O)cc2s1)c1ccncc1 endpoint_value=72
compound_structure=O=C(Nc1nc2ccc(O)cc2s1)c1cccnc1 endpoint_value=51
compound_structure=CC(=O)Nc1nc2cc(C)ccc2s1 endpoint_value=116
compound_structure=CC(=O)Nc1nc2ccccc2s1 endpoint_value=112
compound_structure=O=C(Nc1nc2ccc(O)cc2s1)c1ccccn1 endpoint_value=59

---

Target: TTBK2 (Homo sapiens)
Sequence (Q6IQ55 whole entry, species assumed): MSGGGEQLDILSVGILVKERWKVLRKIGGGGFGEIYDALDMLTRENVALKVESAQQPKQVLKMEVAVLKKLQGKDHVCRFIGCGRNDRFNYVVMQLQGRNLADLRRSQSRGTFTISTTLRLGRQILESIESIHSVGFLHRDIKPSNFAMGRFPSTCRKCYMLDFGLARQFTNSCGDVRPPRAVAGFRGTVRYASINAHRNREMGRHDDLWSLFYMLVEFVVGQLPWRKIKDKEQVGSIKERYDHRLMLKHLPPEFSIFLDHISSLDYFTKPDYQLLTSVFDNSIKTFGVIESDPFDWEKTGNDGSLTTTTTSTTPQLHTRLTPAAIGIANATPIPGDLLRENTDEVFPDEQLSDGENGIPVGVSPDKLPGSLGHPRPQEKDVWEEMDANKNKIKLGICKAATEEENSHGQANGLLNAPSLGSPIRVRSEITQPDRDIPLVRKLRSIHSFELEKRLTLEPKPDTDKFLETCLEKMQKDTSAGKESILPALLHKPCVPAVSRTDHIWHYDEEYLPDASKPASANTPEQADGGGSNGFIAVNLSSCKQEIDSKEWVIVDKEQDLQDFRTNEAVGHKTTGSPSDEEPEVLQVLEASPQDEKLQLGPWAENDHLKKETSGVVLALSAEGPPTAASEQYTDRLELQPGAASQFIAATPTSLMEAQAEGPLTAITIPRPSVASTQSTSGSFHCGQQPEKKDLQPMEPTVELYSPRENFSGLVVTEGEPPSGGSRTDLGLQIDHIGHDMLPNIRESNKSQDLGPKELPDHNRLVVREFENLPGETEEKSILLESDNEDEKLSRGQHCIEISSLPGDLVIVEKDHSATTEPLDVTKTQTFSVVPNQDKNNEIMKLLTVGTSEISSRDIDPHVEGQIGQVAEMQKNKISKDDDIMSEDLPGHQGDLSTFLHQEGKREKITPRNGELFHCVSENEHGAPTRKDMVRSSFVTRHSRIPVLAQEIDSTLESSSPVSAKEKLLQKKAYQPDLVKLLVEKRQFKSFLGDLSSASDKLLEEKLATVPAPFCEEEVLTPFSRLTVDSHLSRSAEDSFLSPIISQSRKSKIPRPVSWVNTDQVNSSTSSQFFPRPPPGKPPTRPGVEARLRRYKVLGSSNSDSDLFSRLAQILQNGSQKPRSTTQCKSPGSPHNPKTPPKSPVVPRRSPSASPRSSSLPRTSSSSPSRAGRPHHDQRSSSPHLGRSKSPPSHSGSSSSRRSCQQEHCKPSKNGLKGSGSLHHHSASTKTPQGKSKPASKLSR
Assay: Kinase profiling TTBK2
Assay type: biochemical
Details: 100 micromolar inhibitor concentration; 100 is no change; read-out: residual kinase activity, TTBK2
Measured Endpoint: remaining activity at 100 µM (%)

compound_structure=CC(=O)Nc1nc2ccc(C#N)cc2s1 target_system="TTBK2 (Homo sapiens)" value_unit=% endpoint_value=78
compound_structure=CC(=O)Nc1nc2cc(F)ccc2s1 target_system="TTBK2 (Homo sapiens)" value_unit=% endpoint_value=93
compound_structure=CC(=O)Nc1nc2cc(C(F)(F)F)ccc2s1 target_system="TTBK2 (Homo sapiens)" value_unit=% endpoint_value=91
compound_structure=COc1ccc2sc(NC(C)=O)nc2c1 target_system="TTBK2 (Homo sapiens)" value_unit=% endpoint_value=84
compound_structure=CC(=O)Nc1nc2ccc(C(F)(F)F)cc2s1 target_system="TTBK2 (Homo sapiens)" value_unit=% endpoint_value=98

---

Biological target: HER4 (Homo sapiens, UniProt Q15303)
Experiment: Kinase profiling HER4
Type: biochemical
Details: 100 micromolar inhibitor concentration; 100 is no change; read-out: residual kinase activity, HER4
Entries and their remaining activity at 100 µM
Measured Endpoint: remaining activity at 100 µM (%)

compound_structure=CC(=O)Nc1nc2ccc(C#N)cc2s1 target_system="HER4 (Homo sapiens, UniProt Q15303)" measured_endpoint="remaining activity at 100 µM" endpoint_value=90
compound_structure=CC(=O)Nc1nc2cc(F)ccc2s1 target_system="HER4 (Homo sapiens, UniProt Q15303)" measured_endpoint="remaining activity at 100 µM" endpoint_value=92
compound_structure=CC(=O)Nc1nc2ccc([N+](=O)[O-])cc2s1 target_system="HER4 (Homo sapiens, UniProt Q15303)" measured_endpoint="remaining activity at 100 µM" endpoint_value=81
compound_structure=CC(=O)Nc1nc2cc(C(F)(F)F)ccc2s1 target_system="HER4 (Homo sapiens, UniProt Q15303)" measured_endpoint="remaining activity at 100 µM" endpoint_value=110
compound_structure=CC(=O)Nc1nc2ccc(O)cc2s1 target_system="HER4 (Homo sapiens, UniProt Q15303)" measured_endpoint="remaining activity at 100 µM" endpoint_value=36
compound_structure=COc1ccc2sc(NC(C)=O)nc2c1 target_system="HER4 (Homo sapiens, UniProt Q15303)" measured_endpoint="remaining activity at 100 µM" endpoint_value=94
compound_structure=CC(=O)Nc1nc2ccc(C(F)(F)F)cc2s1 target_system="HER4 (Homo sapiens, UniProt Q15303)" measured_endpoint="remaining activity at 100 µM" endpoint_value=97

---

Molecular target: p38d MAPK (Homo sapiens)
Sequence (O15264 whole entry): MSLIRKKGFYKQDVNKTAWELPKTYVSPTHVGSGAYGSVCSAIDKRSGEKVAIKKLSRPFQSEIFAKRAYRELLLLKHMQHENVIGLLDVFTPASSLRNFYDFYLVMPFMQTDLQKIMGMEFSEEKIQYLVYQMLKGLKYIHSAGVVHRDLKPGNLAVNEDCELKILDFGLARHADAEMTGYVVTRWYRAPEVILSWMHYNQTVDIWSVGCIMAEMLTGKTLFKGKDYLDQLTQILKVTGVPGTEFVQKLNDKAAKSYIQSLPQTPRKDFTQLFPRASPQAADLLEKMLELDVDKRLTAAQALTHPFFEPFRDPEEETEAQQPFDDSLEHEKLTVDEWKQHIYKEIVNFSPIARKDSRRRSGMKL
Assay: Kinase profiling p38d MAPK
Type: biochemical
Conditions: 100 micromolar inhibitor concentration; 100 is no change; read-out: residual kinase activity, p38d MAPK
Measured Endpoint: remaining activity at 100 µM

compound_structure=CC(=O)Nc1nc2ccc(O)cc2s1 measured_endpoint="remaining activity at 100 µM" endpoint_value=43%
compound_structure=CC(=O)Nc1nc2ccc(C#N)cc2s1 measured_endpoint="remaining activity at 100 µM" endpoint_value=69%
compound_structure=COc1ccc2sc(NC(C)=O)nc2c1 measured_endpoint="remaining activity at 100 µM" endpoint_value=75%
compound_structure=CC(=O)Nc1nc2ccc(C(F)(F)F)cc2s1 measured_endpoint="remaining activity at 100 µM" endpoint_value=76%
compound_structure=CC(=O)Nc1nc2cc(F)ccc2s1 measured_endpoint="remaining activity at 100 µM" endpoint_value=76%
compound_structure=CC(=O)Nc1nc2cc(C(F)(F)F)ccc2s1 measured_endpoint="remaining activity at 100 µM" endpoint_value=52%

---

Target: WNK1 (Homo sapiens)
Assay: Kinase profiling WNK1
Assay type: biochemical
Details: 100 micromolar inhibitor concentration; 100 is no change
Entries and their residual kinase activity, WNK1
Measured Endpoint: residual kinase activity, WNK1

compound_structure=O=C(Nc1nc2cc(O)ccc2s1)c1ccccn1 endpoint_value=100
compound_structure=CC(=O)Nc1nc2cc(C)ccc2s1 endpoint_value=104
compound_structure=O=C(Nc1nc2ccc(O)cc2s1)c1cccnc1 endpoint_value=99
compound_structure=O=C(Nc1nc2ccc(O)cc2s1)c1ccccn1 endpoint_value=91
compound_structure=O=C(Nc1nc2cc(O)ccc2s1)c1ccncc1 endpoint_value=88

---

Target: TIE2 (Homo sapiens, UniProt Q02763)
Sequence (Q02763 23-1124, species assumed): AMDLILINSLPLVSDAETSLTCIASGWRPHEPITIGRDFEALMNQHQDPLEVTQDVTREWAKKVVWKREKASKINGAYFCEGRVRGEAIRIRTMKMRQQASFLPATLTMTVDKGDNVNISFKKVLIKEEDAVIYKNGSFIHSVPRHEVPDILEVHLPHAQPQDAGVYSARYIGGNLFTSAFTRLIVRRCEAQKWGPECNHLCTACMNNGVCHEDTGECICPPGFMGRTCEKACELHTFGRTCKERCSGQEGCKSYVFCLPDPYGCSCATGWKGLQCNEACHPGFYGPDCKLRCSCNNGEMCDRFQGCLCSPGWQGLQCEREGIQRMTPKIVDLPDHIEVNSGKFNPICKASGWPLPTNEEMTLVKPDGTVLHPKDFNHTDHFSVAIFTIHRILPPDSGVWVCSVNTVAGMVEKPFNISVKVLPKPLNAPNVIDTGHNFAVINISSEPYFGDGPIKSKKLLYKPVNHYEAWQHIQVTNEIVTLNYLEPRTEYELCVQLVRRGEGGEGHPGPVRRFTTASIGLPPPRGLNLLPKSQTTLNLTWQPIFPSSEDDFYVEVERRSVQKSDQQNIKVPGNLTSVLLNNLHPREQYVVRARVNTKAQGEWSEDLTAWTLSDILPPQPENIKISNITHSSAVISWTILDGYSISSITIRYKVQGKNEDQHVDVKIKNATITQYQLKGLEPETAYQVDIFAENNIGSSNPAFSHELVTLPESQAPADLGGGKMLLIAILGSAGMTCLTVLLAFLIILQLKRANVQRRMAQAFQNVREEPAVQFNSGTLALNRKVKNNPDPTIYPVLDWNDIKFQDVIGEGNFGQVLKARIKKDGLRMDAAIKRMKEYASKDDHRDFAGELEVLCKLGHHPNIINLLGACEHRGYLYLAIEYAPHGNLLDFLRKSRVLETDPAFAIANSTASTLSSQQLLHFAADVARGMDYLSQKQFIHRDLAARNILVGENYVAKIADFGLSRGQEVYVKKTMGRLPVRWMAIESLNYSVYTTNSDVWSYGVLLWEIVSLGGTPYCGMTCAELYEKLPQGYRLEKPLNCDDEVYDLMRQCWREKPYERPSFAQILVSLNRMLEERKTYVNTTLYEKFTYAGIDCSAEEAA
Assay: Kinase profiling TIE2
Type: biochemical
Conditions: 100 micromolar inhibitor concentration; 100 is no change
Measured Endpoint: residual kinase activity, TIE2

compound_structure=O=C(Nc1nc2ccc(O)cc2s1)c1ccncc1 endpoint_value=80
compound_structure=CC(=O)Nc1nc2ccccc2s1 endpoint_value=112
compound_structure=O=C(Nc1nc2cc(O)ccc2s1)c1ccccn1 endpoint_value=106
compound_structure=O=C(Nc1nc2ccc(O)cc2s1)c1ccccn1 endpoint_value=76
compound_structure=O=C(Nc1nc2cc(O)ccc2s1)c1cccnc1 endpoint_value=100

---

Entries and their residual kinase activity, CHK2
Target: CHK2 (Homo sapiens)
Sequence (O96017 whole entry, species assumed): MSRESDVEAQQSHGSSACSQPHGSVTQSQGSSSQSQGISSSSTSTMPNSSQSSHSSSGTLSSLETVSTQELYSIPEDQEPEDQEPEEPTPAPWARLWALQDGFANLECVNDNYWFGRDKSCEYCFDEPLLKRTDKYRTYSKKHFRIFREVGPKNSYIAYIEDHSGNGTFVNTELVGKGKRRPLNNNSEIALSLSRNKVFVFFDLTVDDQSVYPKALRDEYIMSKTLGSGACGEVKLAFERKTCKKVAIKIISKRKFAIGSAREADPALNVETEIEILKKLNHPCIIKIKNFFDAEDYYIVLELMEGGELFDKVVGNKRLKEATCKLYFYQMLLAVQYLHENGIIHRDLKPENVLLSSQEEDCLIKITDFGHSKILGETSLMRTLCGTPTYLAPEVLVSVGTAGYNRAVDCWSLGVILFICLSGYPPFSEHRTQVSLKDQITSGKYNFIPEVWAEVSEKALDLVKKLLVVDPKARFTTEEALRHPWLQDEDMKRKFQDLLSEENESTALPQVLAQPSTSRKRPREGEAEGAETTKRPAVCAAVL
Assay: Kinase profiling CHK2
Assay type: biochemical
Details: 100 micromolar inhibitor concentration; 100 is no change
Measured Endpoint: residual kinase activity, CHK2

compound="O=C(Nc1nc2ccc(F)cc2s1)c1ccccc1 [Compound 03-92]" target_system="CHK2 (Homo sapiens)" measured_endpoint="residual kinase activity, CHK2" endpoint_value=80
compound="O=C(Nc1nc2ccc(O)cc2s1)c1ccccn1 [Compound 03-12]" target_system="CHK2 (Homo sapiens)" measured_endpoint="residual kinase activity, CHK2" endpoint_value=23
compound="COc1ccc2nc(NC(=O)c3ccccc3)sc2c1 [Compound 03-98]" target_system="CHK2 (Homo sapiens)" measured_endpoint="residual kinase activity, CHK2" endpoint_value=37
compound="O=C(Nc1nc2ccc(O)cc2s1)c1ccncc1 [Compound 08-42]" target_system="CHK2 (Homo sapiens)" measured_endpoint="residual kinase activity, CHK2" endpoint_value=22
